Data origin, for the record: ChEMBL document CHEMBL1153520

molecular target: 5-hydroxytryptamine receptor 4 (Homo sapiens); experiment: Agonist activity at human 5HT4C receptor expressed in HEK293 cells assessed as accumulation of cAMP by flash plate adenylyl cyclase activation assay
Sequence (Q13639 whole entry): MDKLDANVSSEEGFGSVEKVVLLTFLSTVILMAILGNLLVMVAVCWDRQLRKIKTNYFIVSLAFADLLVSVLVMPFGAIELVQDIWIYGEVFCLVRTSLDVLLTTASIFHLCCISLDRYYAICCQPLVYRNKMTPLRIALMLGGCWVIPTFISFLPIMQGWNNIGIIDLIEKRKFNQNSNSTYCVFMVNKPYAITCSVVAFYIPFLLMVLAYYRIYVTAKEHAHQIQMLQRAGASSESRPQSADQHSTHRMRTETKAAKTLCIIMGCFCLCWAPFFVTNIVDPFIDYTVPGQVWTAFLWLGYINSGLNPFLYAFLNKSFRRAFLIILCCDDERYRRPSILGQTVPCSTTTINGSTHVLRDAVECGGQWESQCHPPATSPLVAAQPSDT

smiles_entry: CC(C)n1c(=O)c(C(=O)N[C@H]2C[C@H]3CC[C@@H](C2)N3CCCCCCCN(C)CCCN(C)S(C)(=O)=O)cc2ccccc21
units_of_measure: µM
EC50: 0.000631

smiles_entry: COc1cc(N)c(Cl)cc1C(=O)NC1CCN(CCCCCCCCN2CCN(S(C)(=O)=O)CC2)CC1
units_of_measure: µM
EC50: 0.0398

smiles_entry: CC(C)n1c(=O)c(C(=O)N[C@H]2C[C@H]3CC[C@@H](C2)N3CCCCCCCCN2CCCCC2)cc2ccccc21
units_of_measure: µM
EC50: 0.00126

smiles_entry: CC(C)n1c(=O)c(C(=O)N[C@H]2C[C@H]3CC[C@@H](C2)N3CCCCCN2CCCCC2)cc2ccccc21
units_of_measure: µM
EC50: 0.001

smiles_entry: CCCCCCCCN1CCC(NC(=O)c2cc(Cl)c(N)cc2OC)CC1
units_of_measure: µM
EC50: 0.0398

smiles_entry: COc1cc(N)c(Cl)cc1C(=O)NC1CCN(CCN2CCCCC2)CC1
units_of_measure: µM
EC50: 0.1

smiles_entry: CC(C)n1c(=O)c(C(=O)N[C@H]2C[C@H]3CC[C@@H](C2)N3CCCCCN2C(=O)c3ccccc3C2=O)cc2ccccc21
units_of_measure: µM
EC50: 0.0251

smiles_entry: CC(C)n1c(=O)c(C(=O)N[C@H]2C[C@H]3CC[C@@H](C2)N3CCCCCCCCN2C(=O)c3ccccc3C2=O)cc2ccccc21
units_of_measure: µM
EC50: 0.0501
